Source of measurements: ChEMBL document CHEMBL1255544

# Tested on: Candida albicans
# protocol: Antimicrobial activity against Candida albicans after 48 hrs by agar dilution method
# Assay type: functional
// diameter of the inhibition zone (DIZ) lookup, one value per entry
property name: diameter of the inhibition zone (DIZ) (mm)

molecule | value observed
COc1ccc(OC)c(/C=N/NC(=O)c2cc(Cl)c[nH]2)c1 | 13
COc1ccc(OC)c(/C=N/NC(=O)c2cc(Cl)c(Cl)[nH]2)c1 | 24
COc1ccc(/C=N/NC(=O)c2cc(Cl)c[nH]2)cc1 | 15
COc1ccc(/C=C/C(=O)c2cc(Cl)c(Cl)[nH]2)cc1 | 12
COc1ccc(/C=N/NC(=O)c2cc(Cl)c[nH]2)cc1OC | 20
O=C(/C=C/c1ccc(Cl)cc1)c1cc(Cl)c[nH]1 | 13
COc1ccc(/C=C/C(=O)c2ccc(Cl)[nH]2)cc1OC | 14
O=C(N/N=C/c1ccc(Cl)cc1)c1cc(Cl)c[nH]1 | 17
COc1ccc(/C=C/C(=O)c2cc(Cl)c[nH]2)cc1 | 12
COc1ccc(OC)c(/C=C/C(=O)c2cc(Cl)c(Cl)[nH]2)c1 | 15
O=C(/C=C/c1ccco1)c1cc(Cl)c[nH]1 | 18
O=C(/C=C/c1ccco1)c1cc(Cl)c(Cl)[nH]1 | 14
COc1ccc(/C=N/NC(=O)c2cc(Cl)c(Cl)[nH]2)cc1 | 24
COc1ccc(/C=C/C(=O)c2cc(Cl)c[nH]2)cc1OC | 12
O=C(/C=C/c1ccco1)c1ccc(Cl)[nH]1 | 10
CN(C)c1ccc(/C=N/NC(=O)c2cc(Cl)c[nH]2)cc1 | 18
O=C(N/N=C/c1ccco1)c1cc(Cl)c(Cl)[nH]1 | 23
COc1ccc(/C=N/NC(=O)c2cc(Cl)c(Cl)[nH]2)cc1OC | 24
O=C(N/N=C/c1ccccc1O)c1cc(Cl)c(Cl)[nH]1 | 16
COc1ccc(/C=C/C(=O)c2cc(Cl)c(Cl)[nH]2)cc1OC | 18
CN(C)c1ccc(/C=N/NC(=O)c2cc(Cl)c(Cl)[nH]2)cc1 | 22
O=C(N/N=C/c1ccccc1)c1cc(Cl)c[nH]1 | 20
O=C(/C=C/c1ccc(Cl)cc1)c1cc(Cl)c(Cl)[nH]1 | 14
O=C(N/N=C/c1c(O)cccc1O)c1cc(Cl)c[nH]1 | 18
O=C(N/N=C/c1ccccc1O)c1cc(Cl)c[nH]1 | 18
C[C@@H]1[C@H](O)[C@@H](C)/C=C/C=C/C=C/C=C/C=C/C=C/C=C/[C@H](O[C@@H]2O[C@H](C)[C@@H](O)[C@H](N)[C@@H]2O)C[C@@H]2O[C@](O)(C[C@@H](O)C[C@@H](O)[C@H](O)CC[C@@H](O)C[C@@H](O)CC(=O)O[C@H]1C)C[C@H](O)[C@H]2C(=O)O [AMPHOTERICIN B] | 25
O=C(N/N=C/c1ccc(Cl)cc1)c1cc(Cl)c(Cl)[nH]1 | 20
O=C(N/N=C/c1ccccc1)c1cc(Cl)c(Cl)[nH]1 | 23
COc1ccc(OC)c(/C=C/C(=O)c2cc(Cl)c[nH]2)c1 | 16
O=C(N/N=C/c1ccco1)c1cc(Cl)c[nH]1 | 21
O=C(/C=C/c1ccccc1O)c1cc(Cl)c[nH]1 | 15
COc1ccc(/C=C/C(=O)c2ccc(Cl)[nH]2)cc1 | 14

---

// diameter of the inhibition zone (DIZ) lookup, one value per entry
# Tested on: Staphylococcus aureus
# protocol: Antimicrobial activity against Staphylococcus aureus ATCC 25923 after 24 hrs by disk diffusion method
# Format: functional
property name: diameter of the inhibition zone (DIZ)

smiles | property name | value observed
COc1ccc(/C=C/C(=O)c2cc(Cl)c(Cl)[nH]2)cc1OC | diameter of the inhibition zone (DIZ) | 24 mm
O=C(N/N=C/c1ccco1)c1cc(Cl)c(Cl)[nH]1 | diameter of the inhibition zone (DIZ) | 26 mm
COc1ccc(/C=C/C(=O)c2cc(Cl)c[nH]2)cc1OC | diameter of the inhibition zone (DIZ) | 13 mm
COc1ccc(/C=C/C(=O)c2cc(Cl)c(Cl)[nH]2)cc1 | diameter of the inhibition zone (DIZ) | 20 mm
COc1ccc(OC)c(/C=N/NC(=O)c2cc(Cl)c(Cl)[nH]2)c1 | diameter of the inhibition zone (DIZ) | 24 mm
O=C(N/N=C/c1ccccc1O)c1cc(Cl)c(Cl)[nH]1 | diameter of the inhibition zone (DIZ) | 22 mm
O=C(N/N=C/c1c(O)cccc1O)c1cc(Cl)c[nH]1 | diameter of the inhibition zone (DIZ) | 24 mm
O=C(N/N=C/c1ccc(Cl)cc1)c1cc(Cl)c[nH]1 | diameter of the inhibition zone (DIZ) | 26 mm
COc1ccc(OC)c(/C=C/C(=O)c2cc(Cl)c[nH]2)c1 | diameter of the inhibition zone (DIZ) | 19 mm
O=C(/C=C/c1ccc(Cl)cc1)c1cc(Cl)c(Cl)[nH]1 | diameter of the inhibition zone (DIZ) | 25 mm
COc1ccc(/C=N/NC(=O)c2cc(Cl)c(Cl)[nH]2)cc1 | diameter of the inhibition zone (DIZ) | 20 mm

---

# System: Candida albicans
# protocol: Antimicrobial activity against Candida albicans after 48 hrs by broth dilution method
# Type: functional
Could you please mark Yes for values of MIC below 20 µg/mL and No for values at or above it?

molecule | system | label value
COc1ccc(/C=N/NC(=O)c2cc(Cl)c(Cl)[nH]2)cc1OC | Candida albicans | Yes
CN(C)c1ccc(/C=N/NC(=O)c2cc(Cl)c[nH]2)cc1 | Candida albicans | No
C[C@@H]1[C@H](O)[C@@H](C)/C=C/C=C/C=C/C=C/C=C/C=C/C=C/[C@H](O[C@@H]2O[C@H](C)[C@@H](O)[C@H](N)[C@@H]2O)C[C@@H]2O[C@](O)(C[C@@H](O)C[C@@H](O)[C@H](O)CC[C@@H](O)C[C@@H](O)CC(=O)O[C@H]1C)C[C@H](O)[C@H]2C(=O)O [AMPHOTERICIN B] | Candida albicans | Yes
COc1ccc(/C=C/C(=O)c2cc(Cl)c[nH]2)cc1 | Candida albicans | No
COc1ccc(OC)c(/C=N/NC(=O)c2cc(Cl)c(Cl)[nH]2)c1 | Candida albicans | Yes
COc1ccc(/C=N/NC(=O)c2cc(Cl)c[nH]2)cc1OC | Candida albicans | No
O=C(N/N=C/c1c(O)cccc1O)c1cc(Cl)c[nH]1 | Candida albicans | No
O=C(N/N=C/c1ccc(Cl)cc1)c1cc(Cl)c(Cl)[nH]1 | Candida albicans | Yes
O=C(N/N=C/c1ccccc1O)c1cc(Cl)c[nH]1 | Candida albicans | No
COc1ccc(/C=C/C(=O)c2cc(Cl)c[nH]2)cc1OC | Candida albicans | No
COc1ccc(/C=C/C(=O)c2cc(Cl)c(Cl)[nH]2)cc1OC | Candida albicans | No
O=C(N/N=C/c1ccccc1O)c1cc(Cl)c(Cl)[nH]1 | Candida albicans | Yes
COc1ccc(/C=C/C(=O)c2ccc(Cl)[nH]2)cc1OC | Candida albicans | No
O=C(/C=C/c1ccco1)c1ccc(Cl)[nH]1 | Candida albicans | No
COc1ccc(/C=C/C(=O)c2ccc(Cl)[nH]2)cc1 | Candida albicans | No
O=C(/C=C/c1ccc(Cl)cc1)c1cc(Cl)c(Cl)[nH]1 | Candida albicans | No
COc1ccc(/C=C/C(=O)c2cc(Cl)c(Cl)[nH]2)cc1 | Candida albicans | No
O=C(/C=C/c1ccco1)c1cc(Cl)c[nH]1 | Candida albicans | No
O=C(N/N=C/c1ccc(Cl)cc1)c1cc(Cl)c[nH]1 | Candida albicans | No
O=C(N/N=C/c1ccco1)c1cc(Cl)c[nH]1 | Candida albicans | No
O=C(N/N=C/c1ccco1)c1cc(Cl)c(Cl)[nH]1 | Candida albicans | Yes
COc1ccc(OC)c(/C=N/NC(=O)c2cc(Cl)c[nH]2)c1 | Candida albicans | No
COc1ccc(OC)c(/C=C/C(=O)c2cc(Cl)c[nH]2)c1 | Candida albicans | No
O=C(/C=C/c1ccccc1O)c1cc(Cl)c[nH]1 | Candida albicans | No
O=C(N/N=C/c1ccccc1)c1cc(Cl)c(Cl)[nH]1 | Candida albicans | Yes
O=C(N/N=C/c1ccccc1)c1cc(Cl)c[nH]1 | Candida albicans | No
COc1ccc(OC)c(/C=C/C(=O)c2cc(Cl)c(Cl)[nH]2)c1 | Candida albicans | No
CN(C)c1ccc(/C=N/NC(=O)c2cc(Cl)c(Cl)[nH]2)cc1 | Candida albicans | Yes
COc1ccc(/C=N/NC(=O)c2cc(Cl)c(Cl)[nH]2)cc1 | Candida albicans | Yes
COc1ccc(/C=N/NC(=O)c2cc(Cl)c[nH]2)cc1 | Candida albicans | No
O=C(/C=C/c1ccco1)c1cc(Cl)c(Cl)[nH]1 | Candida albicans | No
O=C(/C=C/c1ccc(Cl)cc1)c1cc(Cl)c[nH]1 | Candida albicans | No
